Test system: TK-10 renal
Assay Info: NCI tumour cell line growth inhibition, 48 h
Form field: TGI (one value per entry).

Below, each entry is followed by its recorded TGI result.
Input line: Using the record for CC(C)(Oc1ccc2c(=O)cc(-c3ccccc3)oc2c1)C(=O)Nc1c(Cl)cccc1Cl , report its TGI.
Output line: > 100 µM

Input line: Then this compound: CCCCN(CCCC)C(=O)C(=O)C(C)C(=O)CC (stereo not given)
Output line: > 100 µM

Input line: Now consider O=S(=O)(O)c1cc(N=[N+]([O-])c2cc(S(=O)(=O)O)c3ccccc3c2)cc2ccccc12 .
Output line: > 100 µM

Input line: Check CCc1c(O)c2c(c(O)c1C(C)=O)C(=O)c1c(cc(O)c(C(=O)O)c1C(=O)O)C2=O too.
Output line: > 100 µM

Input line: Let us now turn to NC(=S)N1N=C(c2ccccc2O)CC1c1ccccc1 (stereo not given)
Output line: 78.3 µM

More entries:
Input line: Tell me the measured TGI of CC(O)(CNS(=O)(=O)c1ccccc1)c1ccccc1 (stereo not given) , please.
Output line: > 100 µM

Input line: // repeat for CC1(C)CCC[C@@]2(C)C1C(=O)[C@@H]1O[C@]1(C)[C@@H]2CO (stereo not given in full) and report
Output line: > 100 µM

Input line: What do we get for O=c1c2ccccc2[nH]c(=S)n1-c1ccc(N=Nc2cccc3cc(O)ccc23)cc1 ?
Output line: > 100 µM

Input line: Oc1c(I)cc(-c2nc3ccccc3s2)cc1CN(Cc1ccccn1)Cc1ccccn1 , same question.
Output line: > 100 µM

Input line: CCOC(=O)c1sc2nc(-c3ccccc3)nn2c1CBr ?
Output line: 4.47 µM

Input line: For Cc1ccc(NC(=O)C2C(=O)N(c3ccc(C)c(C)c3)C(=O)/C2=N\NC(N)=S)cc1C (stereo not given) then?
Output line: > 100 µM

Input line: Could you do the same for COc1cc(Cl)c2c3c(c(C(=O)c4ccccc4)oc13)CCC2 , please?
Output line: > 100 µM

Input line: What do you get for Cc1nc(Nc2ccccc2)sc1C(=O)NNc1ccc([N+](=O)[O-])cc1[N+](=O)[O-] ?
Output line: > 100 µM

Input line: Follow-up item: CC1CN=C(NS(=O)(=O)c2cc(C(=O)Nc3ccc(F)cc3)c(Cl)cc2S)NN1 (stereo not given)
Output line: > 100 µM
